These measurements were taken from ChEMBL document CHEMBL4513216.

Reported cytotoxicity at 10 µM is given for each of the following compounds.
Test: Toxicity liver stage against HepG2, at 10uM
Assay type: cell-based
Set-up: test concentration 10 uM, cell line HepG2-A16-CD81EGFP
Experimental Conditions: human, HepG2-A16-CD81EGFP cells; read-out: INHIBITION
Measurement Type: cytotoxicity at 10 µM (%)

Compound | Measurement Type | Measured Result
Cc1cc(C)cc(NCCC(=O)NC2CCN(C(=O)C3CC3)CC2)c1 | cytotoxicity at 10 µM | 2.4
Cc1cnn(CC2CCCCN2C(=O)c2c(C)noc2C)c1 (centres undefined) | cytotoxicity at 10 µM | -7.26
Cc1cc(C)c(CNC(=O)C2CCCN(c3cnccn3)C2)c(=O)[nH]1 (centres undefined) | cytotoxicity at 10 µM | -13.7
CC(C)(C)n1ncc(NCc2ccccc2)c(Cl)c1=O | cytotoxicity at 10 µM | 55.8
Cc1ccccc1C(=O)NCCC(=O)NS(=O)(=O)c1cccnc1 | cytotoxicity at 10 µM | -11.6
CS(=O)(=O)N1CCC2(COCc3cnc(-c4ccccc4)nc32)C1 (centres undefined) | cytotoxicity at 10 µM | 1.22
CC(C)(C)c1ncc(C(=O)NCCNC(=O)c2ccco2)s1 | cytotoxicity at 10 µM | -1.98
Cn1c(=O)c2sccc2n(CC(=O)Nc2cccc(Cl)c2)c1=O | cytotoxicity at 10 µM | 5.86
CN(C)Cc1nc(C(C)(C)NC(=O)c2nc3ccccc3s2)no1 | cytotoxicity at 10 µM | 8.61
Cn1ccnc1CN1CCC2(CC1)CC(Oc1cccnc1)C2 | cytotoxicity at 10 µM | -20.7
C1CCC(c2nnc3sc(C4CCCO4)nn23)C1 (centres undefined) | cytotoxicity at 10 µM | 8.61
CC(=O)c1nn(-c2ccccc2Cl)c(C)c1C(C)=O | cytotoxicity at 10 µM | 6.33
CCN1CCN(C(=O)c2scnc2C)CC1 | cytotoxicity at 10 µM | 11.7
CC(C)Oc1ncccc1CNC(=O)N1CCOCC1 | cytotoxicity at 10 µM | -40.6
CN(CCc1ccncc1)Cc1c(C2CCCC2)[nH]c2ncccc12 | cytotoxicity at 10 µM | 1.46
CC(=O)c1ccc(-n2c(C)cn(CCC#N)c2=O)cc1 | cytotoxicity at 10 µM | 19.3
CC(NC(=O)CSCC(N)=O)c1ccccc1Oc1ccccc1 (centres undefined) | cytotoxicity at 10 µM | 4.84
CCN1CC2(CCN(C(=O)C(C)Oc3cccc(Cl)c3)CC2)OC1=O (centres undefined) | cytotoxicity at 10 µM | -4.68
Cc1nnn2c1COC(CNCc1ccncc1)C2 (centres undefined) | cytotoxicity at 10 µM | 7.48

---

Test: Toxicity liver stage against HepG2, at 10uM
Format: cell-based
Design: test concentration 10 uM, cell line HepG2-A16-CD81EGFP
Experimental Conditions: human, HepG2-A16-CD81EGFP cells; read-out: INHIBITION
Measurement Type: cytotoxicity at 10 µM

Compound | Measured Result
NC(=O)N1C[C@H]2CN(Cc3nccs3)C[C@H]2C1 | 2.6%
CCCC1(NC(=O)C(c2ccc(F)cc2)N(C)C)CC1 (stereo not drawn) | -37.1%
Cc1nc(C)n(CC2CCCCN2Cc2nc(-c3ccoc3)no2)n1 (stereo not drawn) | 1.98%

---

Test: Toxicity liver stage against HepG2, at 10uM
Assay type: cell-based
Parameters: test concentration 10 uM, cell line HepG2-A16-CD81EGFP
Experimental Conditions: human, HepG2-A16-CD81EGFP cells; read-out: INHIBITION
Reported cytotoxicity at 10 µM is given for each of the following compounds.

Compound | cytotoxicity at 10 µM
O=C(NCC1CCCO1)c1cc(-c2ccncc2)c2cnccc2n1 (stereo not drawn) | 1.05%
Cn1c(CN2CCCC(c3noc(C4CC4)n3)C2)cc(=O)n(C)c1=O (stereo not drawn) | -11.2%
O=C(NCc1cnn2ccccc12)NC1CCCC1 | -2.91%

---

Test: Toxicity liver stage against HepG2, at 10uM
Assay type: cell-based
Set-up: test concentration 10 uM, cell line HepG2-A16-CD81EGFP
Experimental Conditions: human, HepG2-A16-CD81EGFP cells; read-out: INHIBITION

Compound | cytotoxicity at 10 µM / %
NC(=O)C(CNC(=O)CCc1ccsc1)Cc1ccc(F)cc1 (centres undefined) | 21.2
CS(=O)(=O)NC[C@]12COC[C@H]1CN(C(=O)Cc1ccccc1F)C2 | -2.57
CC(C)NC(=O)Nc1ncc(-c2cccnc2)s1 | 7.05
COC[C@@]12CC[C@@H](N3CCOCC3)C[C@H]1CCN(c1nc(CO)cs1)C2 | -3.61
Cc1cnn(CC2CCCN2c2ncnc3ccsc23)c1 (centres undefined) | 13.6
COCCN(Cc1ccc(C)cc1)CC1CCOC1 (centres undefined) | -9.06
CC(C)(NS(C)(=O)=O)c1nc(-c2ccncc2)no1 | 12.9
O=C(Cn1c(=O)oc2ccccc21)NCC1(O)CCc2ccccc21 (centres undefined) | -17.2
Cc1ncc2c(n1)CN(CC(=O)Nc1nccs1)CC2 | -0.586
Cc1cccc(OCCNC(=O)CN2CCCC2Cn2cccn2)c1 (centres undefined) | -9.46
Cc1ccc(NCc2ncc(C(C)(C)C)o2)c(Cl)c1 | -15.4
COCC(=O)N1CCCC(c2nc(N)ncc2-c2cccc(F)c2)C1 (centres undefined) | -0.6
CN(CC(=O)N1CCCC(n2ccnc2)C1)c1cnccn1 (centres undefined) | 1.41
CCc1nnsc1-c1nc(C(C)C)nn1-c1ccc2c(c1)OCO2 | -9.69
COC(=O)C1CCN(c2cncc(-n3nc(C)cc3C)n2)CC1 | -9.44
CN(C)CC(=O)N1CCOCC(Cc2ccccn2)C1 (centres undefined) | 5.88
CC(C)(C)c1nc(CN2CCCC2Cn2cccn2)no1 (centres undefined) | 0.222
c1coc(CN2CCC3(CCOCC3COCC3CC3)CC2)c1 (centres undefined) | 2.79
Cc1cc(CN(C)Cc2csc(-c3ccc(C(C)C)cc3)n2)no1 | 41.1
COc1ccc(N2CCC(NC(=O)c3sccc3C)CC2)cc1 | -2.28
Cc1cc(C)c(CNC(=O)NCC2Cc3ccccc3O2)c(=O)[nH]1 (centres undefined) | -5.21
CCN1CCC2(CC1)CC(CC(=O)N(C)C)c1ccc(F)cc12 (centres undefined) | -98.6
CCN1CCN(C(=O)C(C)N2CCc3cncnc3C2)CC1 (centres undefined) | -10.9
Cc1nc(-c2ccc(F)c(F)c2)cc(C2CCNCC2)n1 | 2.04
CCOc1ncccc1NC(=O)NCC(O)c1ccc(OC)cc1 (centres undefined) | -16.6
COCCOc1cccc(C(=O)N2CCCC(n3ccnc3)C2)c1 (centres undefined) | -17.1
CCOc1ccc(C2SCC(=O)Nc3c2c(=O)[nH]n3C(C)C)cc1 (centres undefined) | 8.68
COC1CCN(C(=O)C2CC(=O)N(c3ccccc3Br)C2)CC1 (centres undefined) | -3.57
O=C(NCCCN1CCCC1)c1n[nH]c(=O)c2ccccc12 | -6.62
Cc1nc(N2CCN(C)CC2)ncc1C(=O)N1CC[C@](C)(O)[C@H](C)C1 | 1.88
CC1CN(C(=O)c2cscn2)c2ccccc2S1 (centres undefined) | 6.43
O=C(CCn1cnnn1)N1CCCC(CO)(CCc2ccccc2)C1 (centres undefined) | 5.26
CC(=O)N1CCCC(C(=O)N2Cc3nc(C)n(C)c(=O)c3C2)C1 (centres undefined) | -3.65
CCc1[nH]c(C2(N)CCCC2)nc(=O)c1C | -1.29

---

Test: Toxicity liver stage against HepG2, at 10uM
Format: cell-based
Set-up: test concentration 10 uM, cell line HepG2-A16-CD81EGFP
Experimental Conditions: human, HepG2-A16-CD81EGFP cells; read-out: INHIBITION
Measurement Type: cytotoxicity at 10 µM

Compound | Measured Result
Cc1cccc(CN(C(=O)CCn2cncn2)C(C)C)c1 | 8.32%
CCN(Cc1ccncc1)C1CCCN(C/C=C/c2ccc(F)cc2)C1 (stereo unspecified) | 6.61%
Cc1ccccc1OCCN1CCCC1CS(N)(=O)=O (stereo unspecified) | 18.3%
Cc1nccc([C@@H]2C[C@@H]3CCN(Cc4cccs4)C[C@H]3O2)n1 | -143%
CCOCc1ncn2c1CN(S(=O)(=O)c1ccc(F)cc1)CC2 | 1.29%
CN(C)Cc1noc2c1CN(Cc1ccc[nH]1)CC2 | 7.01%
O=C(Nc1ncc[nH]1)c1cc(-c2cccnc2)n[nH]1 | 5.69%
CC(=O)c1cccc(OCCCC(=O)N(C)Cc2cnn(C)c2)c1 | -3.05%
Cc1ccc(CN2CCCC3(CCN(Cc4ccoc4)CC3)C2)cc1 | -91%
CC(C)c1ncncc1C(=O)NCCN1CCCS1(=O)=O | -8.98%
Cc1c[nH]c(CN2CCCCC2CCN(C)C)c(C)c1=O (stereo unspecified) | -2.97%
COCc1nc2cc(NCc3ccncc3)ccc2o1 | -3.3%
CCOCCC(=O)N(Cc1ccncc1)C(C)CC (stereo unspecified) | 9.99%
Cc1cc(C(F)(F)F)nn1CCCNC(=O)C1CCCO1 (stereo unspecified) | -6.5%
Cn1cccc1C(=O)N1CCCC2(CCN(CCN3CCCC3)C2=O)C1 (stereo unspecified) | -10.8%
O=C(c1cncs1)N1CCC(c2cnccn2)CC1 | -23.2%
Cc1nc(CN2CCCN(C(=O)c3c(C)oc(C)c3C)CC2)cs1 | -14%
COCCN1CCN(Cc2csc(-c3cnn(C)c3)n2)CC1 | -9.71%
Cc1c(C(=O)NCCCC(N)=O)sc2ccc(F)cc12 | 14.6%
CN(Cc1noc2c1CCCC2)C(=O)CN1C(=O)CSc2ccccc21 | -40.5%
Cc1nc(CN2C(=O)CC3(CCN(C(N)=O)CC3)c3ccccc32)cs1 | -1.4%
COc1ccccc1OC1CN(C(=O)c2ccccc2C(C)=O)C1 | 7.6%
COc1ccc(F)cc1C[S+]([O-])CC(=O)NCc1ccccc1 (stereo unspecified) | -8.97%
O=C(c1cncc(Br)c1)N1CCC(O)(Cn2ccc3ccncc32)CC1 | 2.44%
COc1c(C)cnc(CN2CCC(N(C)C(=O)C(C)OC)CC2)c1C (stereo unspecified) | -11.3%
CCOc1ccccc1N1CCN(C(=O)NCc2cc[nH]n2)CC1 | 5.48%
Cc1cnn(C2(C(=O)O)CCN(Cc3oc4ccccc4c3C)CC2)c1 | -5.87%
Cc1cc(C(=O)NC2(c3ccc(Br)cc3)CC2)n(C)n1 | 56.7%
CCc1cnc(NCC(C)Oc2cccnc2)nc1 (stereo unspecified) | 0.977%
CCc1nc(CN(C)C2CCN(CC(=O)N(C)C)C2)no1 (stereo unspecified) | -16.7%
Cc1ccc(S(=O)(=O)NCCNc2cc(-n3cccc3)ncn2)c(C)c1 | -0.817%
CN1CCC(c2nnc3ccc(C(=O)NC4CCCC4)cn23)C1 (stereo unspecified) | -1.37%
O=C(c1ccccn1)N1CCN(c2cnnc(N3CCCC3)c2)CC1 | 4.74%
Cc1cccnc1CN1CC[C@@](C)(O)[C@H](Oc2ccccc2)C1 | -9.11%
CCCc1c(C(=O)N2CCN(c3ncccn3)CC2)cnn1C | 3.38%
Cc1noc(C)c1CN(C)C(=O)C1CCCCN1S(C)(=O)=O (stereo unspecified) | 5.04%
NC(=O)CS(=O)(=O)Cc1ccc(F)cc1 | -3.71%
COc1c(NS(=O)(=O)c2ccc(F)c(C)c2)c(C)nn1C | -6.33%
CC(c1ccc(F)cc1)N1CCN(Cc2nccn2C)CC1 (stereo unspecified) | -25.7%
Cc1nc(C2CCCN(C(=O)c3cccc4c3OCCO4)C2)no1 (stereo unspecified) | -8.93%
Cn1ccnc1CN1C[C@@H](CN2CCCCCC2)[C@@H](CO)C1 | -2.63%
